I'd appreciate it if you could supply TS MDAI hCMEC values for the items below.
System: hCMEC
Assay explanation: TS MDAI hCMEC (Table S2)
Type: cell-based, human
Set-up: scale not given here
Test context: Table S2
Hey, just send me the number, nothing else.

Quick one: TS MDAI hCMEC of CN(C)CCCC1(c2ccc(F)cc2)OCc2cc(C#N)ccc21 (stereo not drawn) [Citalopram] ? 0.10

Quick one: TS MDAI hCMEC of Cc1c(N)c(=O)n(-c2ccccc2)n1C [4-Aminoantipyrine] ? 1.01

Quick one: TS MDAI hCMEC of C[C@@H](O)[C@H]1C(=O)N2C(C(=O)O)=C(S[C@@H]3CN[C@H](C(=O)N(C)C)C3)[C@H](C)[C@H]12 ? 1.00

Quick one: TS MDAI hCMEC of CNCCC=C1c2ccccc2CCc2ccccc21 ? 0.12

Quick one: TS MDAI hCMEC of CC1COc2c(N3CCN(C)CC3)c(F)cc3c(=O)c(C(=O)O)cn1c23 (stereo not drawn) ? 0.82

Quick one: TS MDAI hCMEC of CC(C)NCC(O)COc1cccc2ccccc12 (stereo not drawn) ? 0.08

Quick one: TS MDAI hCMEC of O=C1CCc2ccc(OCCCCN3CCN(c4cccc(Cl)c4Cl)CC3)cc2N1 ? 0.68

Quick one: TS MDAI hCMEC of C[C@H]1COc2c(N3CCN(C)CC3)c(F)cc3c(=O)c(C(=O)O)cn1c23 ? 1.16

Quick one: TS MDAI hCMEC of OCCOCCN1CCN(C2=Nc3ccccc3Sc3ccccc32)CC1 ? 0.45

* * *

Target or system: MATE1 (Homo sapiens)
Assay explanation: Uptake ratio in MATE1-overexpressing HEK293 cells vs empty vector (2.5 μM, 1 min, HPLC-MS/MS)
Format: cell-based
Test context: fold uptake over empty vector, 2.5 μM, 1 min
I'd appreciate it if you could supply MATE1 ratio values for the items below.
Hey, just send me the number, nothing else.

Quick one: MATE1 ratio of CNCC(=O)O ? 0.76

Quick one: MATE1 ratio of CNC(=O)c1cccnc1 [Methylnicotinamide, N-Methylnicotinamide] ? 33.89

Quick one: MATE1 ratio of Oc1ccc(C2CNCCc3c2cc(O)c(O)c3Cl)cc1 (stereo not drawn) ? 8.11

Quick one: MATE1 ratio of CC(C)(C)NCC(O)COc1cccc2c1CCC(=O)N2 (stereo not drawn) ? 7.43

Quick one: MATE1 ratio of CCCS(=O)(=O)N[C@H]1C[C@@H](N(C)c2ncnc3[nH]ccc23)C1 ? 1.09

Quick one: MATE1 ratio of CNCC[C@@H](Oc1ccccc1C)c1ccccc1 [Atomoxetine] ? 1.12

Quick one: MATE1 ratio of CC[N+](CC)(CC)CC(=O)Nc1c(C)cccc1C ? 36.39

Quick one: MATE1 ratio of CC(=O)Nc1ccc(OCC(O)CNC(C)C)cc1 (stereo not drawn) ? 21.52

Quick one: MATE1 ratio of CC(=O)N[C@@H](CS)C(=O)O ? 1.02

Quick one: MATE1 ratio of O=c1[nH]c2ccccc2n1C1CCN(CCCC(c2ccc(F)cc2)c2ccc(F)cc2)CC1 [Pimozide] ? 0.98

Quick one: MATE1 ratio of CCCCNc1cc(C(=O)O)cc(S(N)(=O)=O)c1Oc1ccccc1 [Bumetanide] ? 2.02

Quick one: MATE1 ratio of COc1ccc2c(c1)N(C[C@H](C)CN(C)C)c1ccccc1S2 ? 1.21

Quick one: MATE1 ratio of NCC(CC(=O)O)c1ccc(Cl)cc1 (stereo not drawn) ? 1.45

Quick one: MATE1 ratio of COc1cc2c(cc1OC)CC(=O)N(CCCN(C)C[C@H]1Cc3cc(OC)c(OC)cc31)CC2 ? 1.14

Quick one: MATE1 ratio of CNCCc1ccccc1 ? 1.27

Quick one: MATE1 ratio of C[N+](C)(C)CC(=O)O ? 0.80

Quick one: MATE1 ratio of CCN1CCCC1CNC(=O)c1cc(S(=O)(=O)CC)c(N)cc1OC [Amisulpride (S), Amisulpride] ? 13.70

Quick one: MATE1 ratio of N[C@@H]1CON=C1O [Cycloserine (D), Cycloserine] ? 1.19

Quick one: MATE1 ratio of CC1(C)N=C(N)N=C(N)N1c1ccc(Cl)cc1 ? 21.02

Quick one: MATE1 ratio of CCCN1CCCC[C@H]1C(=O)Nc1c(C)cccc1C ? 1.22

Quick one: MATE1 ratio of N[C@@H](Cc1ccccc1)C(=O)O ? 0.66

* * *

Target or system: MATE1 (Homo sapiens, UniProt Q96FL8)
Sequence (Q96FL8 whole entry): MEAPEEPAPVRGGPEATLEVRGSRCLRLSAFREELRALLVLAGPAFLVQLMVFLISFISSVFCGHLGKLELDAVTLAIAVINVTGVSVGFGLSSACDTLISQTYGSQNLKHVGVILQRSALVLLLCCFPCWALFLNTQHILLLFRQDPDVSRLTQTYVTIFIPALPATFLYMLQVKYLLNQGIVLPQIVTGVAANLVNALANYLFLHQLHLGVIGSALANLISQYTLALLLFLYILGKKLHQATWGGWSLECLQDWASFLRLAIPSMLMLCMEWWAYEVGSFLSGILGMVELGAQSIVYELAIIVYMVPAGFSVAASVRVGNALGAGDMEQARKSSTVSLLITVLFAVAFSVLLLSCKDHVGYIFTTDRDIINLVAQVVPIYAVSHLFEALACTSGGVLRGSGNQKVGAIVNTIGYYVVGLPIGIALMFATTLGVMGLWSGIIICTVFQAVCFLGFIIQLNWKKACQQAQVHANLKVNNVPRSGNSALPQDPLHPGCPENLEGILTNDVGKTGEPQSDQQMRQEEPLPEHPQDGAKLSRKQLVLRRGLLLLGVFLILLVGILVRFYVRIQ
Assay explanation: Concentration-dependent uptake (Michaelis-Menten) via MATE1 in HEK293 cells
Experimental endpoint: MATE1 Vmax

Quick one: MATE1 Vmax of CCN1CCCC1CNC(=O)c1cc(S(N)(=O)=O)ccc1OC (stereo not shown) [Sulpiride] ? 851 pmol × mg protein^–1 × min^–1

Quick one: MATE1 Vmax of COCCn1c2c([n+](Cc3cnccn3)c1C)C(=O)c1ccccc1C2=O ? 304 pmol × mg protein^–1 × min^–1

Quick one: MATE1 Vmax of c1c2c(cc3c1OCO3)-c1cc3ccc4c(c3c[n+]1CC2)OCO4 ? 2901 pmol × mg protein^–1 × min^–1

Quick one: MATE1 Vmax of CN(C)C(=O)Oc1cccc([N+](C)(C)C)c1 ? 7255 pmol × mg protein^–1 × min^–1

* * *

Target or system: MATE2K (Homo sapiens)
Sequence (Q86VL8 1-566 isoform Q86VL8-3): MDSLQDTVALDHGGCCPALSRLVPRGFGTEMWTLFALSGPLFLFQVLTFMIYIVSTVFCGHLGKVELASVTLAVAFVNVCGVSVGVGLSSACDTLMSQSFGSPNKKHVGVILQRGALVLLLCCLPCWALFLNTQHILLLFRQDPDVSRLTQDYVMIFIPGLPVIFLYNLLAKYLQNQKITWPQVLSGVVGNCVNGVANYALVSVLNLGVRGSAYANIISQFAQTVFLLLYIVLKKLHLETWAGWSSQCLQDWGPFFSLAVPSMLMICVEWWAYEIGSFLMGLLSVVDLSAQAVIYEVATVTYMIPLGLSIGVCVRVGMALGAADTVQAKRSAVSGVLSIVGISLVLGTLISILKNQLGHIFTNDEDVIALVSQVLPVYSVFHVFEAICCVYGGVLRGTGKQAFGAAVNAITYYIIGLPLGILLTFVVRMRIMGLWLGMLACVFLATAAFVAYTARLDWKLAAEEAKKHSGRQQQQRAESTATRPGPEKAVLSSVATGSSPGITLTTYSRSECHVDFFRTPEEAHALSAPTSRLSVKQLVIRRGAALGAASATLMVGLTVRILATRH
Assay explanation: in vitro
Test context: other cell line, pH 7.4
Experimental endpoint: microsomal CLint (µL/min/mg)
The answer is to be given in µL/min/mg; state only the numeric part.

Quick one: microsomal CLint of c1c2c(cc3c1OCO3)-c1cc3ccc4c(c3c[n+]1CC2)OCO4 ? 131

* * *

Target or system: UniProt:Q86VL8
Assay explanation: Concentration-dependent uptake (Michaelis-Menten) via MATE2K in HEK293 cells
Test context: read-out: MATE2K KM; HEK293, 1 min, net uptake
I'd appreciate it if you could supply Km values for the items below.
Include the unit right after the number.

Quick one: Km of C[C@H]1N=C(N(C)C)N=C(N)N1 ? 81.6 µM

Quick one: Km of c1c2c(cc3c1OCO3)-c1cc3ccc4c(c3c[n+]1CC2)OCO4 ? 1.88 µM

Quick one: Km of NC[C@H](O)c1ccc(O)c(O)c1 [Norepinephrine] ? 1150 µM

Quick one: Km of COCCn1c2c([n+](Cc3cnccn3)c1C)C(=O)c1ccccc1C2=O ? 8.54 µM

Quick one: Km of Cc1ncc(CO)c(CN)c1O ? 1550 µM

* * *

Target or system: MATE2K (Homo sapiens)
Assay explanation: Uptake ratio in MATE2K-overexpressing HEK293 cells vs empty vector (2.5 μM, 1 min, HPLC-MS/MS)
Type: cell-based
Test context: fold uptake over empty vector, 2.5 μM, 1 min
I'd appreciate it if you could supply MATE2K ratio values for the items below.
Hey, just send me the number, nothing else.

Quick one: MATE2K ratio of C[N+](C)(C)CC(=O)O ? 1.07

Quick one: MATE2K ratio of CN/C(=N\CCSCc1nc[nH]c1C)NC#N ? 3.60

Quick one: MATE2K ratio of CNC(=C[N+](=O)[O-])NCCSCc1ccc(CN(C)C)o1 ? 8.62

Quick one: MATE2K ratio of CC(C)(C)NCC(O)COc1ccccc1C#N (centres unmarked) ? 1.31

Quick one: MATE2K ratio of CC(C)Nc1cccnc1N1CCN(C(=O)c2cc3cc(NS(C)(=O)=O)ccc3[nH]2)CC1 ? 1.09

Quick one: MATE2K ratio of CN(C)CCc1c[nH]c2ccc(CS(=O)(=O)N3CCCC3)cc12 ? 2.36

Quick one: MATE2K ratio of CC[C@@H]1C(=O)OC[C@@H]1Cc1cncn1C ? 1.39

Quick one: MATE2K ratio of CCCCCCCCc1ccc(CCC(N)(CO)CO)cc1 ? 1.14

Quick one: MATE2K ratio of CNC[C@H](O)c1cccc(O)c1 [Phenylephrine (S), Phenylephrine] ? 1.44

Quick one: MATE2K ratio of CN(C)c1ccc(C(=C2C=CC(=[N+](C)C)C=C2)c2ccc(N(C)C)cc2)cc1 ? 1.05

Quick one: MATE2K ratio of Cn1c(=O)[nH]c2ncn(C)c2c1=O ? 0.90

Quick one: MATE2K ratio of CN(C)CCC=C1c2ccccc2COc2ccccc21 [Doxepin] ? 1.32

Quick one: MATE2K ratio of O=C(C[S+]([O-])Cc1ccco1)NC/C=C\COc1cc(CN2CCCCC2)ccn1 (centres unmarked) ? 1.48

Quick one: MATE2K ratio of COc1ccc(CCNC[C@H](O)c2ccc(O)cc2)cc1OC [Denopamine (R), Denopamine] ? 1.69

Quick one: MATE2K ratio of CN(C)CCCN1c2ccccc2Sc2ccc(Cl)cc21 ? 1.33

Quick one: MATE2K ratio of Nc1nc(=O)c2nc(CNc3ccc(C(=O)N[C@@H](CCC(=O)O)C(=O)O)cc3)cnc2[nH]1 ? 1.13

Quick one: MATE2K ratio of CC[C@@H](C(N)=O)N1CCCC1=O ? 1.28

Quick one: MATE2K ratio of CCN1CCC[C@H]1CNC(=O)c1c(OC)ccc(Br)c1OC [Remoxipride] ? 1.21

Quick one: MATE2K ratio of CC(=O)Oc1c(C)cc(OCC(O)CNC(C)C)c(C)c1C (centres unmarked) ? 1.17

Quick one: MATE2K ratio of CN(C)C(=O)Oc1cc(OC(=O)N(C)C)cc(C(O)CNC(C)(C)C)c1 (centres unmarked) ? 1.21

Values from paper PMC12207590
